From: the RNAGym collection of RNA variant scans (doi:10.1093/molbev/msab373)

B1: Azoarcus group I ribozyme (parent)
chain: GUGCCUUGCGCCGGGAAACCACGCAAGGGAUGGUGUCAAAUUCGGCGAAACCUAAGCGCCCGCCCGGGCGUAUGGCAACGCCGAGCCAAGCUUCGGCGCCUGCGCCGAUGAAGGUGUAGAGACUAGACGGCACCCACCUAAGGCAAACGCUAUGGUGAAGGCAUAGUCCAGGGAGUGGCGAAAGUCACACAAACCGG

variants of: B1; assay: reverse-splicing fitness (ratio to wild type); higher = more active; in vitro selection; Mg2+ level not given
# cutoff 0.02 applies to reverse-splicing fitness; >= gives t, < gives f

IN: Answer whether reverse-splicing fitness of C82A A111G A120G A145G C150G C169U is greater than or equal to 0.02.
OUT: f

IN: Quick check: does C82G A111C C150U C169U have reverse-splicing fitness greater than or equal to 0.02?
OUT: f

IN: Reported reverse-splicing fitness reaches at least 0.02 for C82G A111C A120U A145G C150G C169A ?
OUT: f

IN: Answer whether reverse-splicing fitness of C82A A111U A120C A145G C150U C169U U176A is greater than or equal to 0.02.
OUT: f

IN: Determine whether this variant has reverse-splicing fitness no lower than 0.02: C82A A120C C169U U176C
OUT: f

IN: Please tell me: is the variant C82A A120G A145U C150G U176A at or over 0.02 in terms of reverse-splicing fitness?
OUT: f

IN: reverse-splicing fitness >= 0.02 for C82G C150U C169A U176A ?
OUT: f

IN: Reported reverse-splicing fitness at or above 0.02? C82U A111C A120C A145G C169U U176A
OUT: f

IN: reverse-splicing fitness >= 0.02 for A111U A120G A145U C150G C169U U176G ?
OUT: f

IN: Threshold query (reverse-splicing fitness >= 0.02) on A111G A120C A145C C150A U176C
OUT: t

IN: Is reverse-splicing fitness at least 0.02? Consider C82A A120U A145C C150U C169A U176G
OUT: f

IN: Evaluate C82A A120G C150G C169G U176A : reverse-splicing fitness at minimum 0.02?
OUT: f

IN: State whether the measured reverse-splicing fitness reaches 0.02, counting equality as reaching it, for C82A A111C C169U U176C
OUT: f

IN: Check if reverse-splicing fitness >= 0.02 (inclusive). Item: A111C A120C A145U C150U U176A
OUT: t

IN: Item A111G A120C A145C C150A C169A U176C with reverse-splicing fitness of 0.02 or above?
OUT: f

IN: Does A111C A120C A145G C150G C169A U176C have a reported reverse-splicing fitness of at least 0.02?
OUT: f

IN: Reported reverse-splicing fitness reaches at least 0.02 for A120G A145G C150G C169U ?
OUT: t

IN: Tell me whether reverse-splicing fitness is at least 0.02 here: C82A A111C A120U A145G C169U
OUT: f

IN: Is reverse-splicing fitness at least 0.02? Consider A120U A145C C150G C169U U176C
OUT: f

IN: Is reported reverse-splicing fitness greater than or equal to 0.02 here: C82A A111U A120U A145G C169A U176A
OUT: f

IN: Hi, just wondering whether C82A A111C A120C A145G C150U C169A U176G shows reverse-splicing fitness of 0.02 or higher.
OUT: f

IN: Would you say C82U A111C A120U A145U shows reverse-splicing fitness at minimum 0.02?
OUT: t
